// provenance: the supplement of paper PMC10567573

Could you please report measured protein stability index for the items listed next?
- MEASUREMENT DESCRIPTION: protein stability index of a GFP-peptide fusion (GPS, HEK-293T) (PSI 1-6); higher = more stable;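 also: 24-mer peptide tiles fused after GFP, lentivirally expressed, FACS-sorted into six equal bins by GFP/DsRed ratio, decoded by Illumina sequencing, PSI is the read-weighted mean bin number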
- APPLIED CONDITIONS: treatment: MLN4924 1 uM, 8 h; c terminus: a fixed tail appended

Prompt: In one line, give reported protein stability index of the entry NTGYRLQNNENNISCVERGWSTPP [CFHR2] .
Completion: 3.66

Prompt: Write down protein stability index measured for item SSSEQLQCCQTEIIELRRTVNALE [KRT36]
Completion: 3.34

Prompt: Supply measured protein stability index of ILVLTRPVTRNERHSYQVYRQPIP [NET1] in your reply.
Completion: 2.11

Prompt: Tell me measured protein stability index for NCEQLCVNVPGSFVCQCYSGYALA [MATN2] please.
Completion: 2.34

Prompt: Give me measured protein stability index, please, for this sequence: LQHAVELKPLCGCHSFAAAADGPT [SMAD6]
Completion: 3.17

Prompt: Respond only with protein stability index recorded for GAQPCLLLPIVPLSWLVWLLLLLL [ADAMTS4]
Completion: 2.67

Prompt: Tell me its protein stability index given RAALTYTSLEITILTSQPGKEVVK [M1AP] as the entry.
Completion: 2.49

Prompt: Write down protein stability index measured for item RRSIRYGREVELKPYIAAHFDVLP [PTPRD]
Completion: 2.46

Prompt: Look up and report measured protein stability index for this entry: RLVKEGRFVPSNPIGILTTSYCEL [PPTC7]
Completion: 2.12

Prompt: Report measured protein stability index; entry is EVGPQEINKEELEGNSMRCGRKLA [GMCL1]
Completion: 4.76

Prompt: Write down protein stability index measured for item APHQQPPAPPSDALLDLHFPSDHL [TFE3]
Completion: 4.77

Prompt: Fill in reported protein stability index for this entry: NWWIRGILTLTMISLFFLIIYMGS [CDS1]
Completion: 2.55

Prompt: Dear colleague, please send me the reported protein stability index for CRLDYRRPENRSFYLALYKQMSFL [TCF25] when you can.
Completion: 2.28

====

- MEASUREMENT DESCRIPTION: protein stability index of a GFP-peptide fusion (GPS, HEK-293T) (PSI 1-6); higher = more stable
- APPLIED CONDITIONS: treatment: MLN4924 1 uM, 8 h; c terminus: a fixed tail appended
EXPERIMENTAL READOUT: protein stability index
Hey, just send me the number, nothing else.

Prompt: Specify reported protein stability index for the sequence shown: LQRLKEQQFVIAGVLVEDSNNHHL [ZBED1]
Completion: 3.02

Prompt: Tell me its protein stability index given PMVLKGKIRPDSSRPELLQPLNFV [GLT8D2] as the entry.
Completion: 3

Prompt: Please indicate protein stability index recorded for TVIFYGADSEQADIARMLYKDTCH [ZMYND11]
Completion: 2.68

Prompt: Could you please provide reported protein stability index for VVNSHSLSLLGKLTISAAFNIVYI [SLC22A15] ? Thanks!
Completion: 3.09

Prompt: Please supply the value of reported protein stability index for the item NPFYHCLVAEILPAPGKLLGPCVV [SAT2]
Completion: 3.07

Prompt: Look up and state reported protein stability index for SFVDKLLDLMPRLMTSKPAEVVKI [INTS4]
Completion: 2.61

Prompt: For the sequence EHGPSPGQDTFCQGKADGLYPNPR [CHIT1] , report protein stability index.
Completion: 4.36

Prompt: Fill in reported protein stability index for this entry: RGLRYYYDKNIIHKTAGKRYVYRF [ETS1]
Completion: 2.46

Prompt: Fill in reported protein stability index for this entry: YPWDENHCKEKRKTSLLDQLTNTS [NETO1]
Completion: 4.07

Prompt: Please report protein stability index for the following sequence: SAIQALRSSVSRVFDCLKDGMRNK [MED27]
Completion: 2.49

Prompt: In one line, give reported protein stability index of the entry NFIREQDLYALKSVKIPVRNHGIL [LYSMD4] .
Completion: 2.35

Prompt: Given the sequence VEASCSVCLEYLKEPVIIECGHNF [TRIM39] , write its reported protein stability index.
Completion: 2.25

Prompt: Item LQRVLEHRRRNQLIKKKKEELEAK [FAM107A] : provide protein stability index
Completion: 3.81

====

For each entry below, report its protein stability index value.
- MEASUREMENT DESCRIPTION: protein stability index of a GFP-peptide fusion (GPS, HEK-293T) (PSI 1-6); higher = more stable
- APPLIED CONDITIONS: treatment: DMSO; c terminus: a fixed tail appended
Note: the reply should be a number with no unit written.

Prompt: State its protein stability index for this sequence: VIFGVELPGNEEFQVVKDAVLDCL [TENT5D]
Completion: 2.23

Prompt: State its protein stability index: YDDDIDDEDEEEEDADCYDDDDSG [UBE2R2]
Completion: 5.58

Prompt: Using the record for SSGPARGIAIVSVLVILISIVIFC [KCNA3] , state its measured protein stability index.
Completion: 2.21

Prompt: Return reported protein stability index. Input sequence: MGGHHPGADYPVDGLPDLGHAQDL [CTNNB1]
Completion: 5.03

Prompt: Kindly indicate its recorded protein stability index. Item: FNYELVKSWLNGFRPKDQTSVGMS [SLC25A39]
Completion: 1.95

Prompt: Kindly indicate its recorded protein stability index. Item: TPSARRNYRIAGARLMRSNYPPPL [C6orf223]
Completion: 2.92

Prompt: Answer with reported protein stability index of NGPDCGYGSFHQQYWLDGKIIAVG [ATE1]
Completion: 2.35

====

- MEASUREMENT DESCRIPTION: protein stability index of a GFP-peptide fusion (GPS, HEK-293T) (PSI 1-6); higher = more stable
- APPLIED CONDITIONS: treatment: MLN4924 1 uM, 8 h; c terminus: a fixed tail appended
Would you mind telling me the reported protein stability index of each entry?
Field format: numeric only.

Prompt: Please look at this sequence and report its protein stability index: RPELPPVCRARPRACSHLIRLMQR [RIPK4]
Completion: 2.49

Prompt: Assign protein stability index to the following record: RAVLGGLSQTDPRAGGGGGGDYGL [PPTC7]
Completion: 3.85

Prompt: Answer with the recorded protein stability index of TIGASFMTKTVQYQNELHKFLIWD [RAB22A] only.
Completion: 2.01

Prompt: Answer with the recorded protein stability index of LFSLNVISLTCVSVAFAVAWFLPM [SLC19A2] only.
Completion: 2.8

Prompt: State its protein stability index: CLVCQASFCELHLKPHLEGAAFRD [TRIM29]
Completion: 3.67

Prompt: Please list protein stability index recorded for the sequence NALTLTFQRAMHDYNQAEMKQRDN [STX11]
Completion: 3.68

Prompt: Quote protein stability index reported for NIGDSSSGLIQTVFISSYMVLAPV [SPNS1] please.
Completion: 2.67

Prompt: Return protein stability index for the following sequence: NYMNAAMVHINRALKLIIRLFLVE [RTN3]
Completion: 2.27

Prompt: Tell me measured protein stability index for TWGQIKKTTQEAEKLLERQGQAKT [CDK11A] please.
Completion: 5.01

Prompt: Note protein stability index for the sequence shown: KLQQLPADFGRLVNLQHLDLLNNK [LRRC59]
Completion: 3.01

Prompt: Quick one: give measured protein stability index for AGYRLGPAQPGADSSFPPALAEGY [TBX6]
Completion: 3.62

Prompt: Item SELERESKVVVPPLPGKAFLRQLP [SNX3] : provide protein stability index
Completion: 3.86

Prompt: Return value of protein stability index for input DQSKLAGLLDLNNAILQLVKKYKS [ESRRG] , no commentary.
Completion: 2.31

Prompt: Supply reported protein stability index belonging to this sequence: ESQSTSLRGSYNSLHDGSDGLDGI [LURAP1L]
Completion: 4.68

Prompt: Please report protein stability index for the following sequence: NVKTLKDGKPFPELVLEQQLDREA [PCDHGC5]
Completion: 5.02

Prompt: Provide measured protein stability index value, entry: DYLCISFEYSTIKCRDLSALMHEL [BTBD10]
Completion: 2.73

Prompt: Input ARLVFVPLLLLCNIKPRRYLTVVF [SLC29A1] , output reported protein stability index.
Completion: 2.91

Prompt: For the sequence VLALEERFGVRPKVTGYLISYSSM [MFSD9] , give its reported protein stability index.
Completion: 1.95

Prompt: Consider the sequence TEGPSLLNQKGTAVETEGSGSRHP [SLC2A12] . State its measured protein stability index.
Completion: 5.36

Prompt: Using known records, supply protein stability index for IRHNLSLNKCFIKVPREKDEPGKG [FOXJ1]
Completion: 3.9

Prompt: Give protein stability index for the following sequence: RPEEEEDELAHRCSSFMAPPVTDL [CPOX]
Completion: 5.03

Prompt: Could you please provide reported protein stability index for DIMETSGWKSMIQSHPHLVAEAFR [SPOPL] ? Thanks!
Completion: 2.68

Prompt: Given the sequence FVKALDDLHKMNHVTPPNVSLGAT [JUNB] , write its reported protein stability index.
Completion: 2.94

Prompt: Using the record for TITSEVIEKCTTPLSDDHDEKYGV [CRY1] , state its measured protein stability index.
Completion: 4.99

Prompt: Please give measured protein stability index of the following entry: DPDPDPEPAGGSRPGPAVPGLRAL [CMTM3]
Completion: 4.68

Prompt: Recall and state the measured protein stability index for GYFFPTSARDCKFTGNFFYNYMMG [DHCR7] .
Completion: 2.36

Prompt: Give a short answer stating reported protein stability index for TSEGTTLSGVDLELVGSGYRMSLV [FCHO1] .
Completion: 2.29

Prompt: Kindly indicate its recorded protein stability index. Item: LKDLLLQVGRGLRYIHSMSLVHMD [WEE1]
Completion: 2.85

Prompt: Provide measured protein stability index value, entry: AVAVDVAVPKRLLEIVGREGVSLT [HAGHL]
Completion: 2.84

Prompt: Please report protein stability index for the following sequence: VSLGLGQPWHAVMDIESLSVFTEP [FBXO33]
Completion: 1.99

Prompt: Return value of protein stability index for input YPALASKNGKKWEILNFNQYYEAC [ACSBG2] , no commentary.
Completion: 2.81

Prompt: Answer with reported protein stability index of RQVPGSDPACYEFLWGPRALIETS [MAGEA6]
Completion: 2.85

Prompt: Return value of protein stability index for input HSEKMAQYLEEERHMREENLRLQR [CCDC6] , no commentary.
Completion: 4.56

Prompt: Return protein stability index (reported value) for this sequence: SVLLGASNADQLMENIGAIQVLPK [KCNAB2]
Completion: 3.6

Prompt: Return value of protein stability index for input KKVLKKMLKFLAKGEVPKGSCEDE [ATE1] , no commentary.
Completion: 2.25

Prompt: Assign protein stability index to the following record: FSSLNHIVEKRVLAHLAPLFDNPK [INTS3]
Completion: 2.4

Prompt: Look up and report measured protein stability index for this entry: LTKFLEEHPGGEEVLREQAGGDAT [CYB5A]
Completion: 5.44

Prompt: Fill in protein stability index for record SPRTRGSWSQPQPLKAPCLNGDTT [RASAL3]
Completion: 4.03

Prompt: Answer with reported protein stability index of TDAHVWNKSVTLYTVKDKATGEVL [NLN]
Completion: 3.36

Prompt: Return reported protein stability index. Input sequence: EEVPEGMEEAAVASVVLPARELQE [BCL2L13]
Completion: 5.41

Prompt: Complete the entry with protein stability index for AEKIEYNESMKAYHNSPAYLAYIN [SMARCE1]
Completion: 3.46

Prompt: Retrieve protein stability index measured for GYDGLNILNSVEKYDPHTGHWTNV [KLHL12] and print it.
Completion: 3.05

Prompt: Kindly indicate its recorded protein stability index. Item: NSFRLLFDVVVILTCSLSFLLCAR [MCOLN1]
Completion: 3.24

Prompt: Return the recorded protein stability index value; entry: FGQQDWKFLASHFPNRTDQQCQYR [MYBL2]
Completion: 3.08

Prompt: Supply measured protein stability index of YEDIRRENPVGTFHCSMSPGNLEK [PTPN9] in your reply.
Completion: 4.73

Prompt: Please give measured protein stability index of the following entry: VGRIIAPLLSGVAQEVSPCGPPSL [MFSD9]
Completion: 2.65

Prompt: For CKLILSLEPDEDPLCMLLLIDHLA [TCF25] , write its protein stability index.
Completion: 2.95

Prompt: Tell me its protein stability index given FRENGRNCKRERDARVKRKLRGPE [TBX6] as the entry.
Completion: 4.05

Prompt: Look up and state reported protein stability index for LKVAAESCKADVVELLLSHADCDR [FEM1B]
Completion: 3.13

Prompt: Tell me measured protein stability index for ACGGLDNKCSVYPLTFDKNENMAA [GNB5] please.
Completion: 3.43

Prompt: Name the recorded protein stability index of the item KIMADIRAQYDELARKNREELDKY [KRT18] in your answer.
Completion: 3.19

Prompt: Answer with reported protein stability index of QKEDVKPYQVNGVNPAYPESRYTS [ETS1]
Completion: 4.48

Prompt: Name the recorded protein stability index of the item QGDSSQQSLKGHLRNNFQKQLLSN [ZC2HC1C] in your answer.
Completion: 3.88
